Listed here: items and their measured viability, T/C.
Test system: 192522-019-R-J2-PDC complex tumor spheroid viability
method: Anticancer human tumor 192522-019-R-J2-PDC patient-derived colon adenocarcinoma cell line growth inhibition [POLQ]
measurementContext: second compound 1 µM; first compound 0.0316 µM; stronger effect = lower value
readoutKind: viability, T/C (%)

[[record]]
compound = "COc1cccc2c1C(=O)c1c(O)c3c(c(O)c1C2=O)CC(O)(C(=O)CO)CC3OC1CC(N)C(O)C(C)O1 (stereo not given) + Cc1cccc(N(C)C(=O)C2C(O)CCN2c2nc(C)cc(C(F)(F)F)c2C#N)c1"
systemundertest = "192522-019-R-J2-PDC complex tumor spheroid viability"
valuemeasured = 110

[[record]]
compound = "CCc1cc2c(N3CCc4c(cc(Cn5ccnc5)cc4-c4cn(C)nc4C(F)(F)F)C3=O)ccnc2c(OC)n1 + Cc1cccc(N(C)C(=O)C2C(O)CCN2c2nc(C)cc(C(F)(F)F)c2C#N)c1"
systemundertest = "192522-019-R-J2-PDC complex tumor spheroid viability"
valuemeasured = 108

[[record]]
compound = "CC(C)n1c(=O)n(C)c2cnc3cc(F)c(-c4ccc(OCCCN5CCCCC5)nc4)cc3c21 + Cc1cccc(N(C)C(=O)C2C(O)CCN2c2nc(C)cc(C(F)(F)F)c2C#N)c1"
systemundertest = "192522-019-R-J2-PDC complex tumor spheroid viability"
valuemeasured = 98.9

[[record]]
compound = "COc1cccc(OCCCN)c1-c1cc(Nc2cnc(C#N)cn2)n[nH]1 + COC1C(OC(N)=O)C(O)C(Oc2ccc3c(O)c(NC(=O)c4ccc(O)c(CC=C(C)C)c4)c(=O)oc3c2C)OC1(C)C"
systemundertest = "192522-019-R-J2-PDC complex tumor spheroid viability"
valuemeasured = 35.2

[[record]]
compound = "CC1COCCN1c1cc(C2(S(C)(=N)=O)CC2)nc(-c2ccnc3[nH]ccc23)n1 (stereo not given) + Cc1cccc(N(C)C(=O)C2C(O)CCN2c2nc(C)cc(C(F)(F)F)c2C#N)c1"
systemundertest = "192522-019-R-J2-PDC complex tumor spheroid viability"
valuemeasured = 97.6


---

// viability, T/C lookup, one value per entry
Test system: 192522-019-R-J2-PDC complex tumor spheroid viability
method: Anticancer human tumor 192522-019-R-J2-PDC cell line growth inhibition [POLQ];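 note: spheroids exposed to drugs for seven days before reading; 100% = DMSO vehicle control viability in luminescence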
measurementContext: second compound 10 µM; first compound 1 µM; stronger effect = lower value
Description: Multicellular complex tumor spheroid response to Polymerase (POL) inhibitors (novobiocin, ART-558, RP6685) in combination with a variety of drugs and investigational agents in selected tumor cell lines The POL inhibitors (novobiocin, ART-558, and RP6685) were evaluated both individually and in combination with standard of care and investigational anticancer small molecules within a complex spheroid model of solid tumors. . […]
readoutKind: viability, T/C (%)

[[record]]
molecule = "CNCc1ccc(-c2[nH]c3cc(F)cc4c3c2CCNC4=O)cc1 + COC1C(OC(N)=O)C(O)C(Oc2ccc3c(O)c(NC(=O)c4ccc(O)c(CC=C(C)C)c4)c(=O)oc3c2C)OC1(C)C"
valuemeasured = 96.9

[[record]]
molecule = "O=C(c1cc(Cc2n[nH]c(=O)c3ccccc23)ccc1F)N1CCN(C(=O)C2CC2)CC1 + Nc1ccc(C#CCN(C(=O)Cc2ncc(C(F)(F)F)cc2C(F)(F)F)c2ccc(F)cc2)nn1"
valuemeasured = 103

[[record]]
molecule = "CCc1cc2c(N3CCc4c(cc(Cn5ccnc5)cc4-c4cn(C)nc4C(F)(F)F)C3=O)ccnc2c(OC)n1 + Cc1cccc(N(C)C(=O)C2C(O)CCN2c2nc(C)cc(C(F)(F)F)c2C#N)c1"
valuemeasured = 92.4

[[record]]
molecule = "Nc1ccn(C2OC(CO)C(O)C2(F)F)c(=O)n1 (stereo not given) + COC1C(OC(N)=O)C(O)C(Oc2ccc3c(O)c(NC(=O)c4ccc(O)c(CC=C(C)C)c4)c(=O)oc3c2C)OC1(C)C"
valuemeasured = 65.1

[[record]]
molecule = "O=C(Nc1ccc(O)c(NS(=O)(=O)c2ccc(F)cc2)c1)c1ccc(-c2ccccc2)cc1 + Cc1cccc(N(C)C(=O)C2C(O)CCN2c2nc(C)cc(C(F)(F)F)c2C#N)c1"
valuemeasured = 97.9

